This collection of values is drawn from PubChem BioAssay AID1490.

biological target: 4'-phosphopantetheinyl transferase ffp (Bacillus subtilis); experiment: qHTS Assay for Inhibitors of Bacillus subtilis Sfp phosphopantetheinyl transferase (PPTase); conditions: Biochemical Sfp PPTase activity;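 also: the enzyme is Sfp with the accession as filed and its product quenches rhodamine fluorescence; 0% = enzyme reaction without inhibitor and -100% = no enzyme wells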
Among all 310,000 compounds or so, about 11,000 (3.5%) were called active. About 4% were inconclusive and are not listed. What follows is part of a selection rich in actives, with near analogues and random picks from the rest.
OUTCOME MEASURE: largest response in the series, negative = inhibition (%)
Answer with a number only, understood to be in %.

Ask | Provide largest response in the series, negative = inhibition, tested on 4'-phosphopantetheinyl transferase ffp (Bacillus subtilis), for C=CCNc1nnc(C)c2ccccc12 .
Reply | 4.78

Ask | Lab note: record largest response in the series, negative = inhibition of CCOC(=O)c1c(C)[nH]c2c1-c1ccccc1C(=O)C2=O tested on 4'-phosphopantetheinyl transferase ffp (Bacillus subtilis).
Reply | 4.96

Ask | Lab note: record largest response in the series, negative = inhibition of CCC(c1nnnn1C1CCCC1)N(Cc1cccs1)Cc1cc2cccc(C)c2[nH]c1=O (centres undefined) tested on 4'-phosphopantetheinyl transferase ffp (Bacillus subtilis).
Reply | 9.11

Ask | Send back 4'-phosphopantetheinyl transferase ffp (Bacillus subtilis) largest response in the series, negative = inhibition of CC1CCCN(CCOCCOc2ccccc2-c2ccccc2)C1 (centres undefined) only.
Reply | -31.6

Ask | Answer briefly: largest response in the series, negative = inhibition recorded on 4'-phosphopantetheinyl transferase ffp (Bacillus subtilis) for CC(=O)C1=C(C)NC(=O)NC1c1ccc2c(c1)OCO2 (centres undefined)
Reply | 0.489

Ask | Find largest response in the series, negative = inhibition for CCN(CC(=O)N1CCCC1)S(=O)(=O)c1ccc(F)cc1 on 4'-phosphopantetheinyl transferase ffp (Bacillus subtilis) and write it down.
Reply | 4.81

Ask | Look up 4'-phosphopantetheinyl transferase ffp (Bacillus subtilis) data: largest response in the series, negative = inhibition of c1ccc(-c2ccccc2OCCN2CCCCC2)cc1 , then report it.
Reply | -19
